These measurements were taken from the supplement of paper PMC10567573.

B1: CDKN1A (parent)
chain: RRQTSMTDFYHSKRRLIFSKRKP

Variants of: B1
Assay: protein stability index of a GFP-peptide fusion (GPS, HEK-293T) (PSI 1-6); higher = more stable;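 further: lentivirally expressed fusions sorted by FACS into six bins by GFP to DsRed ratio, PSI derived from sequencing read proportions per bin multiplied by bin number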
Conditions: c terminus: native
Quantity Kind: protein stability index
Please reply with the value in numeric form only.

Examples with their reported protein stability index follow.
[[record]]
variant_name = "S5A"
quantity_kind = "protein stability index"
obs_value = 3

[[record]]
variant_name = "R1Q"
quantity_kind = "protein stability index"
obs_value = 1.72

[[record]]
variant_name = "R2P"
quantity_kind = "protein stability index"
obs_value = 3.33

[[record]]
variant_name = "Q3F"
quantity_kind = "protein stability index"
obs_value = 2.24

[[record]]
variant_name = "D8E"
quantity_kind = "protein stability index"
obs_value = 3.76

[[record]]
variant_name = "D8Y"
quantity_kind = "protein stability index"
obs_value = 1.55


Ask: Request the reported protein stability index associated with K20M
Reply: 1.81

Ask: Reported protein stability index for K13D : what is it?
Reply: 2.39

Ask: Reported protein stability index, variant Q3T : ____
Reply: 2.71

Ask: Name the recorded protein stability index for H11S .
Reply: 2.69

Ask: Dear colleague, I am looking for the recorded protein stability index of the following variant: K20E
Reply: 2.33
